Assay System: BK currents, cloned α-hSlo and β-bSlo in CHO cells (Homo sapiens)
Sequence (Q12791 whole entry): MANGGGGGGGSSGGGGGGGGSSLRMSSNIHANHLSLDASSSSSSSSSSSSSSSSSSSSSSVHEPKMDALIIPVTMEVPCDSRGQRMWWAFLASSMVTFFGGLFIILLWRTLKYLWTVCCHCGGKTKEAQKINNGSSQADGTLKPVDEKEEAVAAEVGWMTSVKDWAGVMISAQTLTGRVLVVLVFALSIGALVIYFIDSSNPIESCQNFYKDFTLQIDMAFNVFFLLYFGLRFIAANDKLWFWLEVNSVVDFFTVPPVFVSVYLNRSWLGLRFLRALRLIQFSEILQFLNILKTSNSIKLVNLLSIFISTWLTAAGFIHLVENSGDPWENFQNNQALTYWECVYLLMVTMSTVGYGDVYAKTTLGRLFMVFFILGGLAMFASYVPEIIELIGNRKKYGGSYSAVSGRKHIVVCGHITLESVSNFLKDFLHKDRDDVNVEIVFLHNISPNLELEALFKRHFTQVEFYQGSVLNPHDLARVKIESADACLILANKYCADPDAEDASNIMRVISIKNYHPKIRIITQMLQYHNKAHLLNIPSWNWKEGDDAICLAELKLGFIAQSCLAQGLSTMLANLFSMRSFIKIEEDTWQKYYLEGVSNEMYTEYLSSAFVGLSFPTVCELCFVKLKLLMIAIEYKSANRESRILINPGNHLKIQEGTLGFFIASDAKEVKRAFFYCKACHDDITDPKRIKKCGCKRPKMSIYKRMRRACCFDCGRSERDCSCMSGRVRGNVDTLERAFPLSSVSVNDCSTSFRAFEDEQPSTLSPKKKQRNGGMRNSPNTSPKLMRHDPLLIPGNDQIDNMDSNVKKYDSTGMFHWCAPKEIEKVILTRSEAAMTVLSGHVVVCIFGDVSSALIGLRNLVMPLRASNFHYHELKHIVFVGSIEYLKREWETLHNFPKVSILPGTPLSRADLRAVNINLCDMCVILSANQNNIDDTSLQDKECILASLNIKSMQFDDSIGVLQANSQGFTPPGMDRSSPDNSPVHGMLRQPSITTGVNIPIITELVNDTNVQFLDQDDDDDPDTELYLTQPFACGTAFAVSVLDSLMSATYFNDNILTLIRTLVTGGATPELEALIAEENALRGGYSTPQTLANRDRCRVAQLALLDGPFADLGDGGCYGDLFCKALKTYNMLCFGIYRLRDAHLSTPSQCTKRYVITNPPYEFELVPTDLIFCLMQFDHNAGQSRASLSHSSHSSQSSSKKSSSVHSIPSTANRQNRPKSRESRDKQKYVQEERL
Sequence (Q28067 whole entry partner): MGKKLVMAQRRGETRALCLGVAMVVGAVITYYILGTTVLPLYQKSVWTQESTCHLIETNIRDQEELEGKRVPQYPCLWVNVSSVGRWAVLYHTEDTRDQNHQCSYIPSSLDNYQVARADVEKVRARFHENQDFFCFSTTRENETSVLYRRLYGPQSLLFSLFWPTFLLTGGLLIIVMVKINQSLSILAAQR
Assay Method Text: Electrophysiological studies (whole-cell patch-clamp, BK currents)
Assay type: cell-based
Details: ratio of current increase after application of compound (20 μM) relative to control current before application, steady-state
Measured Quantity: Effect (ratio of current increase)

Worked set:
> print(dat)
                                   molecule                              assay.system                   measured.quantity   reported.result
1  CN(C)c1ccc(-c2ccc3[nH]ccc3c2)cc1 [Compound 2]  BK currents, cloned α-hSlo and β-bSlo in CHO cells (Homo sapiens)  Effect (ratio of current increase)       + (1-1.1=+)
2  COc1ccccc1-c1ccc2[nH]ccc2c1 [Compound 5]  BK currents, cloned α-hSlo and β-bSlo in CHO cells (Homo sapiens)  Effect (ratio of current increase)  ++ (>1,1-1.2=++)
3  FC(F)(F)c1ccc(-c2ccc3[nH]ccc3c2)cc1 [Compound 4]  BK currents, cloned α-hSlo and β-bSlo in CHO cells (Homo sapiens)  Effect (ratio of current increase)  ++ (>1,1-1.2=++)
4  Clc1ccc(-c2cccc3[nH]ccc23)s1 [Compound 22]  BK currents, cloned α-hSlo and β-bSlo in CHO cells (Homo sapiens)  Effect (ratio of current increase)  ++ (>1,1-1.2=++)
5  FC(F)(F)Oc1ccc(-c2ccc3[nH]ccc3c2)cc1 [Compound 1]  BK currents, cloned α-hSlo and β-bSlo in CHO cells (Homo sapiens)  Effect (ratio of current increase)  ++ (>1,1-1.2=++)

Next molecule, Effect (ratio of current increase) to be filled in.
Dear colleague, I am looking for the recorded Effect (ratio of current increase) of the following molecule: Clc1ccccc1-c1ccc2[nH]ccc2c1 [Compound 30]
+ (1-1.1=+)

---

Assay System: BK channels, cloned hSlo (α-hSlo and β-bSlo) in CHO cells (Homo sapiens, UniProt Q12791)
Sequence (Q12791 whole entry): as the sequence (Q12791 whole entry) above
Sequence (Q28067 whole entry partner): as the sequence (Q28067 whole entry partner) above
Assay Method Text: Em-Assay (voltage sensitive dye DiBAC(4)3 fluorescence, membrane potential)
Type: cell-based
Details: ratio of the compound effect (50 μM) compared to the maximal effect of NS004 (25 or 50 μM); hSlo transfected CHO cells
Measured Quantity: Em effect

> print(dat)
                              item.smiles                              assay.system  measured.quantity  reported.result
1  c1ccc(Oc2ccc(-c3cccc4[nH]ccc34)cc2)cc1  BK channels, cloned hSlo (α-hSlo and β-bSlo) in CHO cells (Homo sapiens, UniProt Q12791)          Em effect        + (0-1=+)
2             c1ccc(-c2ccc3[nH]ccc3c2)cc1  BK channels, cloned hSlo (α-hSlo and β-bSlo) in CHO cells (Homo sapiens, UniProt Q12791)          Em effect        + (0-1=+)
3        CN(C)c1ccc(-c2cccc3cc[nH]c23)cc1  BK channels, cloned hSlo (α-hSlo and β-bSlo) in CHO cells (Homo sapiens, UniProt Q12791)          Em effect       ++ (>1=++)
4      c1cc2cc(-c3ccc4c(c3)OCO4)ccc2[nH]1  BK channels, cloned hSlo (α-hSlo and β-bSlo) in CHO cells (Homo sapiens, UniProt Q12791)          Em effect       ++ (>1=++)
5     FC(F)(F)c1ccc(-c2cccc3cc[nH]c23)cc1  BK channels, cloned hSlo (α-hSlo and β-bSlo) in CHO cells (Homo sapiens, UniProt Q12791)          Em effect        + (0-1=+)
6   Fc1cc(-c2cccc3[nH]ccc23)ccc1-c1ccccc1  BK channels, cloned hSlo (α-hSlo and β-bSlo) in CHO cells (Homo sapiens, UniProt Q12791)          Em effect        + (0-1=+)
7        CN(C)c1ccc(-c2ccc3[nH]ccc3c2)cc1  BK channels, cloned hSlo (α-hSlo and β-bSlo) in CHO cells (Homo sapiens, UniProt Q12791)          Em effect        + (0-1=+)
8     FC(F)(F)c1ccc(-c2cccc3[nH]ccc23)cc1  BK channels, cloned hSlo (α-hSlo and β-bSlo) in CHO cells (Homo sapiens, UniProt Q12791)          Em effect        + (0-1=+)
9           COc1cccc(-c2cccc3[nH]ccc23)c1  BK channels, cloned hSlo (α-hSlo and β-bSlo) in CHO cells (Homo sapiens, UniProt Q12791)          Em effect        + (0-1=+)

Pending compound:
Kindly state the measured Em effect obtained for COc1ccccc1-c1ccc2cc[nH]c2c1 with BK channels, cloned hSlo (α-hSlo and β-bSlo) in CHO cells (Homo sapiens, UniProt Q12791).
+ (0-1=+)

Data origin: patent US20030203959A1
